system-under-test: human PDE2A1 (Homo sapiens)
Construct: GST; purchased BPS Bioscience (San Diego, Calif.) 60020; host or cells: insect cells
protocol-notes: IMAP FP PDE selectivity panel, human PDE2A1
Assay type: biochemical
protocol-conditions: Lab B; read-out: Human PDE2 Ki (nM) Lab B
Method: Selectivity for PDE2, as compared to other PDE families, was assessed using the IMAP® technology. Human PDE10A2 enzyme was prepared from cytosolic fractions of transiently transfected HEK cells. Assays for PDE 1 through 11 were performed in parallel at room temperature in 384-well microtiter plates with an incubation volume of 20.2 μL. […] The intrinsic PDE2 inhibitory activity of a compound which may be used in accordance with the present invention may be determined by these assays.
With a cut-off of 20 nM, any Ki strictly below it is called Criterion met; any Ki meeting it or above is called Criterion not met.

-- ask In the record for CC[C@@H](Nc1cc(CO)cc2ncnn12)c1ccc(C(F)(F)F)c(F)c1 , is Ki less than 20 nM?
-- reply Criterion not met

-- ask # iterate: CC[C@@H](Nc1cc(C)nc2ncnn12)c1ccc(SC(F)(F)F)cc1
-- reply Criterion met

-- ask # iterate: C[C@@H](Nc1cc(CO)cc2ncnn12)c1ccc(OC(F)(F)F)cc1
-- reply Criterion not met

-- ask # iterate: Cc1cc(N[C@@H](c2ccc(SC(F)(F)F)c(F)c2)C(C)C)n2ncnc2n1
-- reply Criterion met

-- ask # iterate: CC(C)(O)[C@@H](Nc1cc(C(F)(F)F)cc2ncnn12)c1ccc(C(F)(F)F)cc1
-- reply Criterion not met

-- ask # iterate: Cc1cc(NC(c2ccc(OC(F)(F)F)cc2C)C(C)(C)O)n2ncnc2n1 (single isomer, unassigned) [Example 129]
-- reply Criterion not met

-- ask # iterate: CN(C)c1cc(N[C@@H](c2ccc(C(F)(F)F)c(F)c2)C(C)(C)O)n2ncnc2n1 (single isomer, unassigned)
-- reply Criterion not met

-- ask # iterate: Cc1cc(N[C@@H](c2ccc(OC(F)(F)F)cc2)C(C)(C)O)n2ncnc2n1
-- reply Criterion met

-- ask # iterate: FS(F)(F)(F)(F)c1ccc(C2(Nc3cc(C4CC4)nc4ncnn34)CC2)cc1
-- reply Criterion not met

-- ask # iterate: CC(C)(C)c1ccc(C(Nc2cc(C(F)(F)F)nc3ncnn23)C(C)(C)O)cc1 (single isomer, unassigned) [Example 161]
-- reply Criterion met

-- ask # iterate: Cc1cc(NC(CO)c2ccc(C(F)(F)F)cc2)n2ncnc2n1 (stereo not shown)
-- reply Criterion not met

-- ask # iterate: Cc1cc(NC(c2ccc(OC(F)F)cc2)C(C)(C)O)n2ncnc2n1 (single isomer, unassigned) [Example 111]
-- reply Criterion not met

-- ask # iterate: CC(C)(O)C(Nc1cc(C(F)(F)F)nc2ncnn12)c1ccc(C(F)F)cc1 (single isomer, unassigned) [Example 163]
-- reply Criterion not met

-- ask # iterate: Cc1cc(NC(C)(C)c2ccc(C(F)(F)F)cc2F)n2ncnc2n1
-- reply Criterion not met

-- ask # iterate: Cc1cc(NC(C)(C)c2ccc(OC(F)(F)F)cc2)n2ncnc2n1
-- reply Criterion not met

-- ask # iterate: Cc1cc(NC(c2cc3ccccc3n2C)C(C)(C)O)n2ncnc2n1 (single isomer, unassigned) [Example 125]
-- reply Criterion not met

###

Kindly supply the reported Ki values for the records listed here.
system-under-test: human PDE2A1 (Homo sapiens, UniProt O00408)
Construct: GST; purchased BPS Bioscience (San Diego, Calif.) 60020; host or cells: insect cells
Sequence (O00408 1-920 isoform O00408-2): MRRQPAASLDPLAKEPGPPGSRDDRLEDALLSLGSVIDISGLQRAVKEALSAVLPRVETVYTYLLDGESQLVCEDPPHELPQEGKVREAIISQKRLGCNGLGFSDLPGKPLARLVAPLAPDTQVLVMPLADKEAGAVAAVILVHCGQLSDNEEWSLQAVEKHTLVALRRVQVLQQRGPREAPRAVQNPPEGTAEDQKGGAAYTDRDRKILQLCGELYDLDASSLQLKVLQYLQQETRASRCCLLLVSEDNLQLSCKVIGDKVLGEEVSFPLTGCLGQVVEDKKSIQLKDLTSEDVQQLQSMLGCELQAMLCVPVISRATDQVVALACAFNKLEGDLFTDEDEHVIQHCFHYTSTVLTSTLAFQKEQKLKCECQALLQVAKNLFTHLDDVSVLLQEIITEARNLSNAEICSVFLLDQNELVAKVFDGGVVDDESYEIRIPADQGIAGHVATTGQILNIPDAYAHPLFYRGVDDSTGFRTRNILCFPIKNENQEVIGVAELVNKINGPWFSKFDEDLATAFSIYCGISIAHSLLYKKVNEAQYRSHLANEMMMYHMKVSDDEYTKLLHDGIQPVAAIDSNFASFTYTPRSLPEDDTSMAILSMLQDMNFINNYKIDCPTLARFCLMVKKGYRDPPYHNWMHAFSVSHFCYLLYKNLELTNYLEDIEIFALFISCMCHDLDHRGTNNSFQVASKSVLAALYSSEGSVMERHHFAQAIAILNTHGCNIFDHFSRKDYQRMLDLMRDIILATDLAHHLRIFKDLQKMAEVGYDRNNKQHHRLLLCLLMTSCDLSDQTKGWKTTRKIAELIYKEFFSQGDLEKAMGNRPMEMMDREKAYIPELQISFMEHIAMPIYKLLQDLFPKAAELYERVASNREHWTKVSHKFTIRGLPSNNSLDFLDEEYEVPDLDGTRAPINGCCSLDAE
protocol-notes: IMAP FP PDE selectivity panel, human PDE2A1
Format: biochemical
protocol-conditions: Lab B; read-out: Human PDE2 Ki (nM) Lab B
// return numeric value only (unit: nM, not printed)

-- ask Please give the measured Ki for this compound: CC(C)(O)C(Nc1cc(C(F)F)nc2ncnn12)c1ccc(OC(F)F)cc1F (single isomer, unassigned) [Example 181]
-- reply 32

-- ask # iterate: Cc1cc(N[C@@H](c2ccc(C3CC3)c(F)c2)C(C)(C)C)n2ncnc2n1 [Example 31]
-- reply 4.9
